Values compiled from ChEMBL document CHEMBL1154987.

Kindly state Vd for each of the entries shown.
assay: Volume of distribution at steady state in Sprague-Dawley rat at 2 mg/kg, iv; type: ADME, organism-based; design: dose 2 mg/kg, route intravenous; conditions: in vivo, read-out: Vdss
One number for each entry, in L/kg.

I have 2 compounds here; please give me Vd for each one.
1. COc1ccc(Cc2cc([C@@H]3OC4(COC4)[C@@H](O)[C@H](O)[C@H]3O)ccc2C)cc1
2. CCOc1ccc(Cc2cc([C@@H]3O[C@H](CO)[C@@H](O)[C@H](O)[C@H]3O)ccc2Cl)cc1

[2.3, 3.8]

###

assay: Oral bioavailability in Sprague-Dawley rat at 5 mg/kg; format: ADME, organism-based; details: in vivo
MEASUREMENT_LABEL: bioavailability (%)
Answers are plain numbers, in %.

COc1ccc(Cc2cc([C@@H]3OC4(COC4)[C@@H](O)[C@H](O)[C@H]3O)ccc2C)cc1; 100

Please supply the value of reported bioavailability for the item CCOc1ccc(Cc2cc([C@@H]3O[C@H](CO)[C@@H](O)[C@H](O)[C@H]3O)ccc2Cl)cc1 [DAPAGLIFLOZIN]
100
